- ASSAY EXPLANATION: HepG2 cytotoxicity, primary screen, cytotoxicity control for P. falciparum antimalarial project, cell-based, ATP luminescence (AID 2303);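 note: 0% = DMSO wells and 100% = digitonin-killed cells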
- DETAILS: HepG2 viability, 24-48 h, at 10 µM, hits give high values
MEASUREMENT NAME: inhibition (%)
The figure you give is taken to be in %; do not add the unit.

Worked cases, answers included:
MOLECULE	VALUE UNIT	inhibition
COc1ccc2nccc([C@@H](O)CN3CCC(NC(=O)C(c4cccs4)N4CCN(c5ccc(F)cc5)CC4)CC3)c2c1 (stereo not given in full)	%	9
NC(N)=Nc1nc(-c2cccc(NC(=O)Cc3ccccc3)c2)cs1	%	1
O=C(O[C@H]1CN[C@H](C#Cc2cc3ncnc(Nc4ccc5c(ccn5S(=O)(=O)c5cccs5)c4)c3s2)C1)N1CCOCC1	%	-4
CC(=O)N(C)c1ccc(C(=O)Nc2cccc(-c3cccc(-c4nc5ccc(C(F)(F)F)cc5[nH]4)c3)c2)cc1	%	31

Turning to the following molecule.
Prompt line: Report inhibition for N#Cc1cccc(Nc2nccc(NCC(O)c3cccc(C(F)(F)F)c3)n2)c1 (stereo not given) please.
Response line: 4
